Recorded values, source patent US9388179B2.

Molecular target: human Nav1.7 channels stably expressed in HEK 293 cells (Homo sapiens, UniProt Q15858)
Construct: expressed in transfected cells; host or cells: HEK 293
Sequence (Q15858 whole entry): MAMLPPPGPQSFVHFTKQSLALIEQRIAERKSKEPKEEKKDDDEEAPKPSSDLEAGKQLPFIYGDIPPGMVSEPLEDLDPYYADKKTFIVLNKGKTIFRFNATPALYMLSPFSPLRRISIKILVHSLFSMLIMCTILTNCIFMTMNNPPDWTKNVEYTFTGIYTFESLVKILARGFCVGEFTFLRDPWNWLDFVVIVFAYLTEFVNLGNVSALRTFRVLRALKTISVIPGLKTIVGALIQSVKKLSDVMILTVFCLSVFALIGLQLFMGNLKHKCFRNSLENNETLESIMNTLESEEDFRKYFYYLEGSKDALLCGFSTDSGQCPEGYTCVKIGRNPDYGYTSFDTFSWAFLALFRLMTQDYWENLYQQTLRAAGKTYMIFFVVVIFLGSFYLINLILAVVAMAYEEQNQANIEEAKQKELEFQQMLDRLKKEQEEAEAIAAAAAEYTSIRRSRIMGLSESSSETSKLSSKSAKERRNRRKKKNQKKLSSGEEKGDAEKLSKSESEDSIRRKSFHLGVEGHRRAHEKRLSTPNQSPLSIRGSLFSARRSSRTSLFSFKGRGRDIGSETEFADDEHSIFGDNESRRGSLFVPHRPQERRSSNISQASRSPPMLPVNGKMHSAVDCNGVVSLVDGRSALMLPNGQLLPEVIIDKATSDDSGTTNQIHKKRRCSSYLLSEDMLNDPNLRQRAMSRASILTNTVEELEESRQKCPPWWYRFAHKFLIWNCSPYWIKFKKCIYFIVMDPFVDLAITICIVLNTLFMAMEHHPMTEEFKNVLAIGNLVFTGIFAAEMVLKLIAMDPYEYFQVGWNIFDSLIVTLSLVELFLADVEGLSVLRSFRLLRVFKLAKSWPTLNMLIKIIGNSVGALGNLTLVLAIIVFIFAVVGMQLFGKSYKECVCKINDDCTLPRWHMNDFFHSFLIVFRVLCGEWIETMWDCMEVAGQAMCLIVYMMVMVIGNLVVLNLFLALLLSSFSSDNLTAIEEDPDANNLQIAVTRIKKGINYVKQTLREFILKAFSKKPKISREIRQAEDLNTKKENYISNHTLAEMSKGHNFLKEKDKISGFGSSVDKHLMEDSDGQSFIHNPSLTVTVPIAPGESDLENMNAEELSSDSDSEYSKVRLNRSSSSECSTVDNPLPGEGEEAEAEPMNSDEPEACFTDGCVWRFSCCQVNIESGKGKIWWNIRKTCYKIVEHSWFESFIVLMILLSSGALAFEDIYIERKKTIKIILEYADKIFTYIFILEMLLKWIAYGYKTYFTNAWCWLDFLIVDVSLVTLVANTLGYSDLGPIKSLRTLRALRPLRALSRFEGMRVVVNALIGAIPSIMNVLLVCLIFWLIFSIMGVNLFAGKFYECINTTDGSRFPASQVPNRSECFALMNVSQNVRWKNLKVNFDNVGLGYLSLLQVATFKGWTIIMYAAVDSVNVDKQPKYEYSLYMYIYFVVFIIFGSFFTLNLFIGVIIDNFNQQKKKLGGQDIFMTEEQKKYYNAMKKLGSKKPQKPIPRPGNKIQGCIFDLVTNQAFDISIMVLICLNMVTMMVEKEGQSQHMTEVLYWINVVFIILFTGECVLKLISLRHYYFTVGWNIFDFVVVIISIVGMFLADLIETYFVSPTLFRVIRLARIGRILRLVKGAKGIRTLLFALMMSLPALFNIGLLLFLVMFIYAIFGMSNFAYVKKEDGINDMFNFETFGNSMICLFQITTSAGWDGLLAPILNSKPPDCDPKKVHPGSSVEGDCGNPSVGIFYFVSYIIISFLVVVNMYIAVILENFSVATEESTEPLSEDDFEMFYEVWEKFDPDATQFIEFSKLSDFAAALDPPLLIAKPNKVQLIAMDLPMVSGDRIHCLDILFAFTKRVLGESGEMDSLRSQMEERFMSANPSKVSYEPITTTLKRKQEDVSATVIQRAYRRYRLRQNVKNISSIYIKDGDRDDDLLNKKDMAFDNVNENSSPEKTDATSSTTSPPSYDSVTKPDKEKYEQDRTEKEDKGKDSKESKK
Assay: PatchXpress 7000 automated patch-clamp, inactivated state block
Format: cell-based
Details: PatchXpress technique; read-out: Nav 1.7 potency
Procedure: For all electrophysiology experiments, offline analysis was used to correct for current rundown and to determine percent inhibition as a function of drug concentration. IC50 values were determined by fitting to the Hill equation. Sodium Current Measurements on the PatchXpress 7000®: […]
recorded.metric: IC50 (nM)
A number alone suffices; assume nM.

## Input Report IC50 for C[C@H](c1ccccc1C1CCNCC1)n1ncc2cc(S(=O)(=O)Nc3cccc(F)n3)c(F)cc21 please.
## Output 584

## Input Report IC50 for NC/C=C/c1cc(Cl)ccc1Cn1ncc2cc(S(=O)(=O)Nc3ncns3)ccc21 please.
## Output 939

## Input Report IC50 for O=S(=O)(Nc1ncns1)c1ccc2c(cnn2Cc2ccccc2C2=CCNCCC2)c1 please.
## Output 4470

## Input Report IC50 for C[C@@H](c1ccccc1)n1ncc2cc(S(=O)(=O)Nc3ncns3)c(F)cc21 please.
## Output 343

## Input Report IC50 for CN(C)CCNC(=O)c1cccc(-c2ccccc2Cn2ncc3cc(S(=O)(=O)Nc4ncns4)c(F)cc32)c1 please.
## Output 1130

## Input Report IC50 for NC1CCc2cccc(Cn3ncc4cc(S(=O)(=O)Nc5nccs5)c(F)cc43)c2C1 (single isomer, unassigned) please.
## Output 5

## Input Report IC50 for C[C@H](c1ccccc1C1CNC1)n1ncc2cc(S(=O)(=O)Nc3cccc(F)n3)c(F)cc21 please.
## Output 775

## Input Report IC50 for C[C@H](c1ccccc1C#CCN)n1ncc2cc(S(=O)(=O)Nc3cccc(F)n3)c(F)cc21 please.
## Output 423

## Input Report IC50 for NC/C=C/c1ccccc1Cn1ncc2cc(S(=O)(=O)Nc3ncns3)ccc21 please.
## Output 127

## Input Report IC50 for NC1CCc2cccc(Cn3ncc4cc(S(=O)(=O)Nc5ncns5)c(F)cc43)c2C1 (single isomer, unassigned) [Ex-13] please.
## Output 7

## Input Report IC50 for O=S(=O)(Nc1ncns1)c1ccc2c(cnn2Cc2ccccc2-c2cccc3c2CCNC3)c1 please.
## Output 2900

## Input Report IC50 for C[C@H](c1cccc2c1CNCC2)n1ncc2cc(S(=O)(=O)Nc3ncc(Cl)s3)c(F)cc21 please.
## Output 137

## Input Report IC50 for NCC(F)c1ccccc1Cn1ncc2cc(S(=O)(=O)Nc3cccc(F)n3)c(F)cc21 (stereo not drawn) please.
## Output 185

## Input Report IC50 for O=S(=O)(Nc1cccc(F)n1)c1cc2cnn(Cc3ccccc3I)c2cc1F please.
## Output 1070

## Input Report IC50 for CC(C)(N)CC#Cc1ccccc1Cn1ncc2cc(S(=O)(=O)Nc3cccc(F)n3)c(F)cc21 please.
## Output 2040

## Input Report IC50 for C[C@H](c1ccccc1C#C[C@H]1CCCC[C@H]1N)n1ncc2cc(S(=O)(=O)Nc3cccc(F)n3)c(F)cc21 please.
## Output 689

## Input Report IC50 for O=S(=O)(Nc1cccc(F)n1)c1cc2cnn(Cc3cccc4c3CNCC4F)c2cc1F (stereo not drawn) please.
## Output 661

## Input Report IC50 for C[C@@H](c1cccc2c1CNCC2)n1ncc2cc(S(=O)(=O)Nc3ncns3)c(F)cc21 please.
## Output 833

## Input Report IC50 for C[C@H](c1cccc2c1CNCC2)n1ncc2cc(S(=O)(=O)Nc3nccs3)c(F)cc21 please.
## Output 25

## Input Report IC50 for C[C@H](c1ccccc1C1=CCNCC1)n1ncc2cc(S(=O)(=O)Nc3cccc(F)n3)c(F)cc21 please.
## Output 1120

## Input Report IC50 for O=S(=O)(Nc1ncns1)c1ccc2c(cnn2Cc2ccc(Cl)cc2-c2cccc3c2CCNC3)c1 please.
## Output 2900

## Input Report IC50 for Cc1cc2c(cnn2Cc2cccc3c2CC(N)CC3)cc1S(=O)(=O)Nc1nccs1 (stereo not drawn) please.
## Output 23

## Input Report IC50 for C[C@H](c1cccc2c1CNCC2)n1ncc2cc(S(=O)(=O)Nc3cccc(F)n3)c(F)cc21 please.
## Output 372

## Input Report IC50 for NC1CCc2cccc(Cn3ncc4cc(S(=O)(=O)Nc5ncns5)c(F)cc43)c2C1 (single isomer, unassigned) [Ex-14] please.
## Output 21

## Input Report IC50 for NCCCc1ccccc1Cn1ncc2cc(S(=O)(=O)Nc3cccc(F)n3)c(F)cc21 please.
## Output 64

## Input Report IC50 for O=S(=O)(Nc1ncns1)c1cc2cnn(Cc3ccccc3)c2cc1F please.
## Output 495

## Input Report IC50 for C[C@H](c1ccccc1CCCN)n1ncc2cc(S(=O)(=O)Nc3cccc(F)n3)c(F)cc21 please.
## Output 381

## Input Report IC50 for O=S(=O)(Nc1ncns1)c1cc2cnn(Cc3ccccc3-c3cccc4c3CCNC4)c2cc1F please.
## Output 782

## Input Report IC50 for NC/C=C/c1ccccc1Cn1ncc2cc(S(=O)(=O)Nc3ncns3)c(F)cc21 please.
## Output 54

## Input Report IC50 for Cc1cc2c(cnn2Cc2cccc3c2CC(N)CC3)cc1S(=O)(=O)Nc1cccc(F)n1 (stereo not drawn) please.
## Output 61

## Input Report IC50 for O=S(=O)(Nc1cccc(F)n1)c1cc2cnn(Cc3cccc4c3CNCC4)c2cc1F please.
## Output 855

## Input Report IC50 for NCC#Cc1ccccc1Cn1ncc2cc(S(=O)(=O)Nc3cccc(F)n3)c(F)cc21 please.
## Output 2530

## Input Report IC50 for NC1CCc2cccc(Cn3ncc4cc(S(=O)(=O)Nc5cccc(F)n5)c(F)cc43)c2C1 (single isomer, unassigned) please.
## Output 56
